biological target: kappa-opioid receptor (KOR) (Homo sapiens, UniProt P41145); assay: inhibition of forskolin-induced cAMP accumulation assay, KOR antagonist mode versus U50488H; format: cell-based; details: versus EC90 of U50488H; read-out: KOR Antagonist IC50+/-SEM
Sequence (P41145 whole entry): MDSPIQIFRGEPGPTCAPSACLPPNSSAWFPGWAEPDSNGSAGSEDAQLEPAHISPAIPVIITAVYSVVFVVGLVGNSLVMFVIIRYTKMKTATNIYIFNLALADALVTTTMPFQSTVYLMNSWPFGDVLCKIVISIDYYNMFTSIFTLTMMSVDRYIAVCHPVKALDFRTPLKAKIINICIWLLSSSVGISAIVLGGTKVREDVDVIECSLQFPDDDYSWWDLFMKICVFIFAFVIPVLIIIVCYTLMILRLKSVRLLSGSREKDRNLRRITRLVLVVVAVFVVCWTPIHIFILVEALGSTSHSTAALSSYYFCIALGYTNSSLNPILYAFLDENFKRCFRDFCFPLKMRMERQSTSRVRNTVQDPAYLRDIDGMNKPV
metric: IC50

CCC=C[C@@H]1[C@H]2CCC[C@]1(c1cccc(O)c1)CCN2CCc1ccccc1 (stereo in doubt) : 0.283 µM
CCC=C[C@H]1[C@H]2CCC[C@]1(c1cccc(O)c1)CCN2CCc1ccccc1 (stereo in doubt) : 0.328 µM
C=C[C@H]1[C@H]2CCC[C@]1(c1cccc(O)c1)CCN2CCc1ccccc1 : 0.074 µM
CC=C[C@H]1[C@H]2CCC[C@]1(c1cccc(O)c1)CCN2CCc1ccccc1 (stereo in doubt) : 0.035 µM
CC=C[C@@H]1[C@H]2CCC[C@]1(c1cccc(O)c1)CCN2CCc1ccccc1 (stereo in doubt) : 0.238 µM

For the molecule shown here, C=C[C@@H]1[C@@H]2CCC[C@@]1(c1cccc(O)c1)CCN2CCc1ccccc1 , give the reported IC50.
0.128 µM

Similarly, C=C[C@@H]1[C@H]2CCC[C@]1(c1cccc(O)c1)CCN2CCc1ccccc1 ?
0.0198 µM

* * *

target: delta-opioid receptor (DOR) (Homo sapiens, UniProt P41143); test: inhibition of forskolin-induced cAMP accumulation assay, DOR antagonist mode versus SNC80; assay type: cell-based; conditions: normalized to naltrexone
Sequence (P41143 whole entry): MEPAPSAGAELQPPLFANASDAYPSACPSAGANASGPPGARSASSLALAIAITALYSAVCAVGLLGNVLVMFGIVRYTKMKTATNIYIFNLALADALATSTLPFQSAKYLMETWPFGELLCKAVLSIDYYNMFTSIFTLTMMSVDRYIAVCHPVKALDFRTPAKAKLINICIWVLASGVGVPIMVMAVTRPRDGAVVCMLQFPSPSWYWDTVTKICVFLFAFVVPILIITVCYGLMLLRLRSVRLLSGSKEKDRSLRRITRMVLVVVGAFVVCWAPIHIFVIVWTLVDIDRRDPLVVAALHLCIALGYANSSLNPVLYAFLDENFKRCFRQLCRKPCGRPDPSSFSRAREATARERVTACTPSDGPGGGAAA
metric: DOR Antagonist % Imax+/-SEM (%)
Report only the number, with the unit % understood.

CCC=C[C@H]1[C@H]2CCC[C@]1(c1cccc(O)c1)CCN2CCc1ccccc1 (stereo in doubt) : 166.6
CCC=C[C@H]1[C@@H]2CCC[C@@]1(c1cccc(O)c1)CCN2CCc1ccccc1 (stereo in doubt) : 211.5
CC=C[C@@H]1[C@H]2CCC[C@]1(c1cccc(O)c1)CCN2CCc1ccccc1 (stereo in doubt) : 74.5
C=C[C@H]1[C@H]2CCC[C@]1(c1cccc(O)c1)CCN2CCc1ccccc1 : 119.1
CCC=C[C@@H]1[C@H]2CCC[C@]1(c1cccc(O)c1)CCN2CCc1ccccc1 (stereo in doubt) : 182.3

Request the reported DOR Antagonist % Imax+/-SEM associated with CC=C[C@H]1C2CCC[C@@]1(c1cccc(O)c1)CCN2CCc1ccccc1 (stereo in doubt)
142.5

Another compound: CCC=C[C@@H]1[C@@H]2CCC[C@@]1(c1cccc(O)c1)CCN2CCc1ccccc1 (stereo in doubt)
226.1

And CC=C[C@H]1[C@H]2CCC[C@]1(c1cccc(O)c1)CCN2CCc1ccccc1 (stereo in doubt) ?
143.3

* * *

molecular target: kappa-opioid receptor (KOR) (Homo sapiens, UniProt P41145); experiment: inhibition of forskolin-induced cAMP accumulation assay, KOR antagonist mode versus U50488H; format: cell-based; settings: versus EC90 of U50488H; read-out: KOR Antagonist IC50+/-SEM
metric: IC50 (nM)
State the answer as a number, implicitly in nM.

Use the examples below as a reference point.
CCC=C[C@H]1[C@@H]2CCC[C@@]1(c1cccc(O)c1)CCN2CCc1ccccc1 (stereo in doubt) : 0.79
CCC=C[C@@H]1[C@@H]2CCC[C@@]1(c1cccc(O)c1)CCN2CCc1ccccc1 (stereo in doubt) : 12.2
CC=C[C@@H]1C2CCC[C@@]1(c1cccc(O)c1)CCN2CCc1ccccc1 (stereo in doubt) : 163

Lab request: please report IC50 under test system kappa-opioid receptor (KOR) (Homo sapiens, UniProt P41145) for CC=C[C@H]1C2CCC[C@@]1(c1cccc(O)c1)CCN2CCc1ccccc1 (stereo in doubt)
4.02
